test.target: alpha 2 C2 adrenergic receptor (Homo sapiens, UniProt P18089)
Sequence (P18089 whole entry): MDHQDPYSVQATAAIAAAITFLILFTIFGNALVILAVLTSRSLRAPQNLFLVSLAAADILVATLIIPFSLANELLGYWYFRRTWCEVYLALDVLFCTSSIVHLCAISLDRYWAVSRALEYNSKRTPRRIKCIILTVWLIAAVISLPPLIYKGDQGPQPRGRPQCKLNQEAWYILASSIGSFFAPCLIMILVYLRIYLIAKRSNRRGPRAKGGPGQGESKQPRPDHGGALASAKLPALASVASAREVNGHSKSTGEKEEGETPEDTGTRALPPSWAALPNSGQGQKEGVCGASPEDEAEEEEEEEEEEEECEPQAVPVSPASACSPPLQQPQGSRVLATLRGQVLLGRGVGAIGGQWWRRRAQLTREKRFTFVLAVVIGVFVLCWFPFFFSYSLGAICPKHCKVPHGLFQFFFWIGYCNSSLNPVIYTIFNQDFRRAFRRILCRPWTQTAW
Assay type: cell-based
experimental.setup: α2-C2, Table 3
measurement.label: EC50

Ask: Return EC50 (reported value) for this molecule: CCN1CCc2nc(N)oc2CC1 [BHT 933]
Result: > 10 µM

###

test.target: m5 muscarinic receptor (Homo sapiens, UniProt P08912)
Construct: expressed in transfected cells; host or cells: NIH 3T3 (mouse fibroblasts)
Sequence (P08912 whole entry): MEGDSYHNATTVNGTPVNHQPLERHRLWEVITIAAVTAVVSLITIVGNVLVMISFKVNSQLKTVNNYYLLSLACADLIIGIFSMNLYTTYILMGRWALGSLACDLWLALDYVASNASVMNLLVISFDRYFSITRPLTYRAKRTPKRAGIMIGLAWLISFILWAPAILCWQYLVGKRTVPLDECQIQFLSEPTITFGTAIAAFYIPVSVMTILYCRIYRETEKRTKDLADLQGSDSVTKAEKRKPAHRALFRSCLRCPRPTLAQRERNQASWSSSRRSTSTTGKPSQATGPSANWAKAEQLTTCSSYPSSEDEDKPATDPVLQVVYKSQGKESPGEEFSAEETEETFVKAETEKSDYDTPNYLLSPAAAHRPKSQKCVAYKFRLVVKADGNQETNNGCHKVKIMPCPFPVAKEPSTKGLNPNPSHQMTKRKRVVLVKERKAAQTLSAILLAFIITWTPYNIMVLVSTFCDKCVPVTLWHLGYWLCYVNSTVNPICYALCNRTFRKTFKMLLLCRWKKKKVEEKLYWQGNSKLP
Assay type: cell-based
experimental.setup: m5, Table 1A; read-out: EC50
measurement.label: EC50 (nM)
Please respond with the number in nM and leave the unit unwritten.

Ask: Return EC50 (reported value) for this compound: `O=C1CCCN1CC#CCN1CCCC1`
Result: 55

###

test.target: m1 muscarinic receptor (Homo sapiens)
Sequence (P11229 1-460): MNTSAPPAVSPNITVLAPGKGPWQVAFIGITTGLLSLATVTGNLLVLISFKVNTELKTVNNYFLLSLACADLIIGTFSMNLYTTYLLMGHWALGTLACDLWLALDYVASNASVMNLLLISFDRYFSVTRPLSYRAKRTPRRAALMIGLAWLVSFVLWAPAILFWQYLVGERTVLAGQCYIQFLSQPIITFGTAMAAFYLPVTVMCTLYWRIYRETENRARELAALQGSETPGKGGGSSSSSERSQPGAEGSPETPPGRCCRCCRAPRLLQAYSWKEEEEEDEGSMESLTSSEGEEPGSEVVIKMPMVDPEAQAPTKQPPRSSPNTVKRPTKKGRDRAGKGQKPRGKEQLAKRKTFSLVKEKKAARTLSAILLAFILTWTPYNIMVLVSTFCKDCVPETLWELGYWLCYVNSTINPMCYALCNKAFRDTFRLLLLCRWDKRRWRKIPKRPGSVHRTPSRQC
measurement.label: pKi
Conceptually, pKi converts a concentration in mol/L into minus its log10.

INSERT INTO results (molecule, readout_value) VALUES
  ('C[N+]1(C)CCC(OC(=O)C(c2ccccc2)c2ccccc2)CC1', 8.60);

Ask: Return pKi (reported value) for this molecule: `COc1ccccc1CNCCCCCCNCCCCCCCCNCCCCCCNCc1ccccc1OC`
Result: 6.30

Ask: Return pKi (reported value) for this molecule: O[Si](CCCN1CCCCC1)(c1ccc(F)cc1)C1CCCCC1 (stereo not drawn)
Result: 6.60

###

Values of Ki reported for UniProtKB P08173 appear below.
Sequence (P08173 whole entry): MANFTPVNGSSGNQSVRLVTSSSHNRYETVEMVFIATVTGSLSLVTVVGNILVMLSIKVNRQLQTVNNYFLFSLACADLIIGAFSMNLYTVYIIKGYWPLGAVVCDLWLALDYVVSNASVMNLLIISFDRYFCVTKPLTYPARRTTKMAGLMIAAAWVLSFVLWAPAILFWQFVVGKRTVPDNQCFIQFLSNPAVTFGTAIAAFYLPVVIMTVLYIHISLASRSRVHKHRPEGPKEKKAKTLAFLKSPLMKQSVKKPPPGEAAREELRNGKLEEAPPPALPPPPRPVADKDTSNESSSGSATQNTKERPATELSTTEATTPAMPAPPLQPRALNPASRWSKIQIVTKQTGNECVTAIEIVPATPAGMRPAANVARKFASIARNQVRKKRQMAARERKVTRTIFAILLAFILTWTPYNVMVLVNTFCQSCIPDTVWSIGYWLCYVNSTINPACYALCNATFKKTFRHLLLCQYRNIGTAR
Please respond with the number in nM and leave the unit unwritten.

INSERT INTO measurements (molecule, unit_text, readout_value) VALUES
  ('O[Si](CCCN1CCCCC1)(c1ccc(F)cc1)C1CCCCC1 (centres unmarked)', 'nM', 50.1);

Ask: Determine reported Ki for `COc1ccccc1CNCCCCCCNCCCCCCCCNCCCCCCNCc1ccccc1OC` ; test system: UniProtKB P08173.
Result: 398

###

test.target: UniProt P20309
measurement.label: Ki (nM)
Please respond with the number in nM and leave the unit unwritten.

Ask: Return Ki (reported value) for this molecule: O[Si](CCCN1CCCCC1)(c1ccc(F)cc1)C1CCCCC1 (centres unmarked)
Result: 31.6

###

test.target: m3 muscarinic receptor (Homo sapiens, UniProt P20309)
Sequence (P20309 whole entry): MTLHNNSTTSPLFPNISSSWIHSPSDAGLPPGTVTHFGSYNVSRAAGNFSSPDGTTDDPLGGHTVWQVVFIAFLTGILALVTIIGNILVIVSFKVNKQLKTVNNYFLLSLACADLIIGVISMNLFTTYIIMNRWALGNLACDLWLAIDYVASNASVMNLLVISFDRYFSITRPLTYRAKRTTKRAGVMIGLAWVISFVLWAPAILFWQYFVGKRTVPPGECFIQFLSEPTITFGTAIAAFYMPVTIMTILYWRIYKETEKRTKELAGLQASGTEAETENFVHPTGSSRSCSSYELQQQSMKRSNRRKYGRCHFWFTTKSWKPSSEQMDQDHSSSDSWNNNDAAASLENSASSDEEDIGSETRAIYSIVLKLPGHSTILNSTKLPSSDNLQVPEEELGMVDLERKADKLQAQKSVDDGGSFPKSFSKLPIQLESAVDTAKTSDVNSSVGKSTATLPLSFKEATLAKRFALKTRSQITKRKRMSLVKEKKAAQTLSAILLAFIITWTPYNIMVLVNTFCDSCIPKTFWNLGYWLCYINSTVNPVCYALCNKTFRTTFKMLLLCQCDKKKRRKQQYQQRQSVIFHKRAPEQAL
assay.method.text: cell-based
Design: expressed in transfected cells; host or cells: NIH 3T3 (mouse fibroblasts)
experimental.setup: read-out: EC50
measurement.label: EC50 (nM)
Please respond with the number in nM and leave the unit unwritten.

Ask: Determine reported EC50 for O=C1CCCN1CC#CCN1CCCC1 [oxotremorine] ; test system: m3 muscarinic receptor (Homo sapiens, UniProt P20309).
Result: 210
